Taken from patent US10287255B2.

Target: human recombinant HDAC6 (Homo sapiens, UniProt Q9UBN7)
Construct: purchased Calbiochem 382180
Sequence (Q9UBN7 1-1215): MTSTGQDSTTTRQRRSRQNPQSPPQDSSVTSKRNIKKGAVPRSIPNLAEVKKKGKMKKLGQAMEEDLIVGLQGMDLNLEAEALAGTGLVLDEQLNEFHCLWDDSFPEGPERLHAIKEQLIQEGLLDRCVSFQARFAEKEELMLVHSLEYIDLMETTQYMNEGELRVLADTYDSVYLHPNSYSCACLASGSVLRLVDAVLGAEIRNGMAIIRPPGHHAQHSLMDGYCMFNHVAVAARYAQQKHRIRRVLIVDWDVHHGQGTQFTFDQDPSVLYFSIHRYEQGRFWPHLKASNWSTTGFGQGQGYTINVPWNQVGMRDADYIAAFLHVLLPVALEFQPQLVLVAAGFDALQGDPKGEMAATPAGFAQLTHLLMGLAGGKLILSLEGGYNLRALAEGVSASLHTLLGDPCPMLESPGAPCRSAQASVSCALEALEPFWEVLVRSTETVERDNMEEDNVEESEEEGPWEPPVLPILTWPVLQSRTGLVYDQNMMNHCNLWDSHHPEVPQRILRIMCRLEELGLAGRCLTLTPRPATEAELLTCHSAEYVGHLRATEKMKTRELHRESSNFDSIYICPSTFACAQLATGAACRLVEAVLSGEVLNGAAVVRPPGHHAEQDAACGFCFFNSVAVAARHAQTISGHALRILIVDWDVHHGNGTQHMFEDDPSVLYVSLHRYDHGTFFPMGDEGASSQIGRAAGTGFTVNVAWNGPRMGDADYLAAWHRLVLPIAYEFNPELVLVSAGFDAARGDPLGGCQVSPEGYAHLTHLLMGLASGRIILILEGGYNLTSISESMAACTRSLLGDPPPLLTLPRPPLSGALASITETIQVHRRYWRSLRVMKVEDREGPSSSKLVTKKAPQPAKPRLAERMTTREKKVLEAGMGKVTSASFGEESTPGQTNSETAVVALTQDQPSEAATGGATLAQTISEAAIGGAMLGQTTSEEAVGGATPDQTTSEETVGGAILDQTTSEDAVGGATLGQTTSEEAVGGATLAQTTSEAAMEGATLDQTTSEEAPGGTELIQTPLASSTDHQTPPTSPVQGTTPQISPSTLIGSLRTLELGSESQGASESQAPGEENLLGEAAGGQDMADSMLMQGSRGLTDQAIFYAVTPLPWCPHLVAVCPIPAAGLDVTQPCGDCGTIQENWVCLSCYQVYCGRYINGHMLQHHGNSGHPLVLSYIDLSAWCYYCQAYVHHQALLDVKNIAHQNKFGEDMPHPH
Experiment: HDAC6 enzyme activity inhibition assay (in vitro, fluorimetric)
Assay type: biochemical
Details: HDAC6 selectivity over HDAC1
observable: HDAC6 selectivity (fold)

Use these answered entries as a reference point.
molecule="C[C@@H]1CN(Cc2ccc(C(=O)NO)cc2)C[C@H](C)N1Cc1cccc(-n2cccc2)c1 [Compound 255]" assayed_system="human recombinant HDAC6 (Homo sapiens, UniProt Q9UBN7)" endpoint_value=354
molecule="CC(C)N1CC=C(c2ccccc2CN2[C@H](C)CN(Cc3ccc(C(=O)NO)cc3)C[C@@H]2C)CC1 [Compound 484]" assayed_system="human recombinant HDAC6 (Homo sapiens, UniProt Q9UBN7)" endpoint_value=151
molecule="C[C@@H]1CN(Cc2ccc(S(C)(=O)=O)cc2)C[C@H](C)N1Cc1ccc(C(=O)NO)cc1 [Compound 300]" assayed_system="human recombinant HDAC6 (Homo sapiens, UniProt Q9UBN7)" endpoint_value=7
molecule="C[C@@H]1CN(Cc2ccc(C(=O)NO)cc2)C[C@H](C)N1Cc1ccccc1C1=CCOCC1 [Compound 332]" assayed_system="human recombinant HDAC6 (Homo sapiens, UniProt Q9UBN7)" endpoint_value=207
molecule="C[C@@H]1CN(Cc2ccc(/C=C/C(=O)NO)cc2)C[C@H](C)N1C(=O)c1ccco1 [Compound 322]" assayed_system="human recombinant HDAC6 (Homo sapiens, UniProt Q9UBN7)" endpoint_value=6

[I] C[C@@H]1CN(Cc2ccc(C(=O)NO)cc2)C[C@H](C)N1C(=O)c1cccc(C2=CCOCC2)c1 [Compound 244]
[II] CC(CN(C)Cc1ccccc1)NCc1cccc(CN2[C@H](C)CN(Cc3ccc(C(=O)NO)cc3)C[C@@H]2C)c1 (stereo partly drawn) [Compound 456]
[in] Of I versus II , which is the one with smaller reported HDAC6 selectivity (fold)? Pick one and reply with its label.
[out] I
